Every entry's value here was drawn from paper PMC5790502.

# Test system: M229 melanoma cells
# experiment: Cell viability assay (CellTiter-Glo)
# Assay type: cell-based
# condition.parameters: Homo sapiens, 72 hours treatment
# Description: Cells that had been seeded 24 hours earlier on poly-L-lysine coated 96-well plates (Sigma-Aldrich) to subconfluency, were treated with drugs at the indicated concentrations for 72 hours. Cytochalasin D (Sigma Aldrich) was used as a positive control. […] Cell viability was determined on day 5 using the CellTiter-Glo Luminescence assay (Promega), according to the manufacturer’s instructions. […] Cell viability was calculated as a percentage of the mean vehicle control. […]
measurement.type: IC50 (nM)
Express the result in nM but write the number alone.

The following compounds have reported results that may help.
Kindly state the measured IC50 obtained for `CCCS(=O)(=O)Nc1ccc(F)c(C(=O)c2c[nH]c3ncc(-c4ccc(Cl)cc4)cc23)c1F` with M229 melanoma cells.
300

And for Cc1oncc1C(=O)Nc1ccc(C(F)(F)F)cc1 [Leflunomide, leflunomide] ?
58200

Now for the compound whose IC50 we want.
What IC50 appears in the records for this compound with M229 melanoma cells? `Cn1cnc2c(F)c(Nc3ccc(Br)cc3Cl)c(C(=O)NOCCO)cc21`
200
